The compounds listed here are annotated with their Activity.
tested on: Enterococcus faecalis; assay: Antibacterial activity against vancomycin-susceptible Enterococcus faecalis assessed as resistant isolates by CLSI M7-A7 broth microdilution method; type: functional
Provide only the numeric value, understood in %.

INSERT INTO measurements (compound, measured_on, property_label, value_unit, readout_number) VALUES
  ('C[C@H]1COc2c(N3CCN(C)CC3)c(F)cc3c(=O)c(C(=O)O)cn1c23.C[C@H]1COc2c(N3CCN(C)CC3)c(F)cc3c(=O)c(C(=O)O)cn1c23.O [LEVOFLOXACIN]', 'Enterococcus faecalis', 'Activity', '%', 40.8);

Per the reported Enterococcus faecalis data, "CCCCCCCCCC(=O)N[C@@H](Cc1c[nH]c2ccccc12)C(=O)N[C@H](CC(N)=O)C(=O)N[C@@H](CC(=O)O)C(=O)N[C@@H]1C(=O)NCC(=O)N[C@@H](CCCN)C(=O)N[C@@H](CC(=O)O)C(=O)N[C@H](C)C(=O)N[C@@H](CC(=O)O)C(=O)NCC(=O)N[C@H](CO)C(=O)N[C@@H]([C@H](C)CC(=O)O)C(=O)N[C@@H](CC(=O)c2ccccc2N)C(=O)O[C@@H]1C" has Activity of 0

Reference source: ChEMBL document CHEMBL1671626
